Data provenance is patent US20230235040A1.

experimental target: T1, hu-IL-36α (human IL-36α, N-terminally truncated active form K6-F158) (human, UniProt Q9UHA7 6-158)
T1 sequence: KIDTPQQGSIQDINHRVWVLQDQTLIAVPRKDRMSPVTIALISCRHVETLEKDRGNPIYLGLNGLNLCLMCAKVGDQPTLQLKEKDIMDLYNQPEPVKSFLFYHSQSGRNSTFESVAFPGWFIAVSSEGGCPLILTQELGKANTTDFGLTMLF
method: cell-based or functional assay
assay readout: IC50, HEK-Blue IL-36R SEAP reporter assay (nM)
Numbers only, in nM.

mAb1.0 recombinant human IgG1 (antibody, V domains shown) VH: QVQLVESGGGVVQPGRSLRLSCAASGFSFSAYAMHWVRQAPGKGLEWVAVISYDGTNEYYADSVKGRFTISRDNSKNTLYLQMNSLRAEDTAVYYCARGIRIFTSYFDSWGQGTLVTVSS VL: QSVLTQPPSVSGAPGQRVTISCTGSSSNIGAHYDVHWYQQLPGTAPKLLIYSNNNRPSGVPDRFSGSKSGTSASLAITGLQAEDEADYYCQSYDYSLRGYVFGGGTKLTVL	43

Now for a further binder.
What value of IC50, HEK-Blue IL-36R SEAP reporter assay has been recorded for this entry: mAb5.0 recombinant human IgG1 (antibody, V domains shown) VH: EVQLLESGGGLVQPGGSLRLSCAASGFTFSTYAMSWVRQAPGKGLEWVSGISGGSGYTYYADSVKGRFTISRDNSKNTLYLQMNSLRAEDTAVYYCARVVTYRDPPASFDYWGQGTLVTVSS VL: QSVLTQPPSVSGAPGQRVTISCTGSSSNIGAHYDVHWYQQLPGTAPKLLIYGNDNRPSGVPDRFSGSKSGTSASLAITGLQAEDEADYYCQSYDYSLKAYVFGGGTKLTVL
95
